Tested on: HOP-62 NSCLC
Procedure Summary: NCI-60 one-dose screen, 48 h (100 = growth as untreated, 0 = no growth, -100 = all killed)
Cond: 10 µM unless noted
About 83,000 compounds went through this panel and 20% of them were active in at least one assay; those are over-represented in the sample as a whole.
Reported Metric: growth (%)

>  <Compound>
O=c1[nH]c2ccccc2cc1COc1ccc(Nc2nccc(-c3ccc(Cl)cc3)n2)cc1

>  <Reported Metric>
growth

>  <Unit Info>
%

>  <Numeric Value>
87.1

$$$$
>  <Compound>
CC1=C(C)C(=O)C(N2CCSCC2)=CC1=O

>  <Reported Metric>
growth

>  <Unit Info>
%

>  <Numeric Value>
99.1

$$$$
>  <Compound>
Nc1nn2c(-c3cc4cc(Br)ccc4oc3=O)ccnc2c1N=Nc1ccc(Br)cc1

>  <Reported Metric>
growth

>  <Unit Info>
%

>  <Numeric Value>
-11.9

$$$$
>  <Compound>
CCCSc1nnc(-c2c(C)nc3sccn23)o1

>  <Reported Metric>
growth

>  <Unit Info>
%

>  <Numeric Value>
112

$$$$
>  <Compound>
COC(=O)c1ccc(-c2c(-c3ccccc3)c(F)c3oc(C(=O)OC)c(N)c3c2-c2ccccc2)cc1

>  <Reported Metric>
growth

>  <Unit Info>
%

>  <Numeric Value>
94

$$$$
>  <Compound>
COc1cc(CNC(=O)C[C@H](C)CCC=C(C)C)ccc1OCc1cn(-c2ccc(Cl)cc2Cl)nn1

>  <Reported Metric>
growth

>  <Unit Info>
%

>  <Numeric Value>
11.3

$$$$
>  <Compound>
CN1CCN(c2ccc3c4c(cccc24)C(=O)N(c2cccc(-c4nn(-c5ccccc5)cc4-c4nc5ccccc5s4)c2)C3=O)CC1

>  <Reported Metric>
growth

>  <Unit Info>
%

>  <Numeric Value>
114

$$$$
>  <Compound>
Nc1cc(-c2c[nH]c3ccc(Br)cc23)nc2cc(-c3c[nH]c4ccccc34)nn12

>  <Reported Metric>
growth

>  <Unit Info>
%

>  <Numeric Value>
-61.9

$$$$
>  <Compound>
Cc1nc(Nc2ccccn2)sc1C1=NNC(c2ccccc2F)C1 (stereo not given)

>  <Reported Metric>
growth

>  <Unit Info>
%

>  <Numeric Value>
70.6

$$$$
>  <Compound>
COc1ccc(NC(=O)N/N=C/c2c[nH]c3ccccc23)cc1

>  <Reported Metric>
growth

>  <Unit Info>
%

>  <Numeric Value>
44.1

$$$$

* * *

Test system: CAKI-1 renal
Procedure Summary: NCI-60 one-dose screen, 48 h (100 = growth as untreated, 0 = no growth, -100 = all killed)
Cond: 10 µM unless noted
About 83,000 compounds went through this panel and 20% of them were active in at least one assay; those are over-represented in the sample as a whole.
Label Condition met when growth is at or above 30%; anything below gets Condition not met.

>  <Compound>
O=C(CSc1nnc(-c2ccc(-c3nc4ccccc4[nH]3)cc2)o1)Nc1ccccc1

>  <Class Label>
Condition met

$$$$
>  <Compound>
COc1ccc(CCC2NCCc3c(Br)c4c(c(OC)c32)OCO4)cc1 (centres undefined)

>  <Class Label>
Condition not met

$$$$
>  <Compound>
O=C(O)CC1S/C(=N/N=C/c2nc3ccccc3s2)NC1=O (centres undefined)

>  <Class Label>
Condition met

$$$$
>  <Compound>
CCOc1ccc2[nH]c(=O)c(C(c3nnnn3CC3CCCO3)N3CCN(Cc4ccccc4)CC3)cc2c1 (centres undefined)

>  <Class Label>
Condition met

$$$$
>  <Compound>
CCOC(=O)c1ccc(NC(=S)NC(=O)c2cccc(NC(=O)c3ccc(C)cc3)c2)cc1

>  <Class Label>
Condition met

$$$$
>  <Compound>
c1ccc(CSc2nnc(-c3ccc4nc(-c5ccccc5)[nH]c4c3)o2)cc1

>  <Class Label>
Condition not met

$$$$
>  <Compound>
COc1cncc(-c2ccc3ncnc(N4CCc5ccc(Cl)cc54)c3c2)c1

>  <Class Label>
Condition not met

$$$$
>  <Compound>
COc1c(F)ccc(C(=O)Nc2ccc3nc(NC(=O)C4CCCN(S(=O)(=O)c5ccc(C(C)(C)C)cc5)C4)sc3c2)c1F (centres undefined)

>  <Class Label>
Condition met

$$$$
>  <Compound>
COc1ccc(-c2nnc3c(/C=C/c4ccc(Br)cc4)nc4ccccc4n23)cc1

>  <Class Label>
Condition not met

$$$$

The measured values listed here are drawn from PubChem BioAssay (NCI).
